Data provenance is PubChem BioAssay AID1508601.

method_description: nuclear p53 accumulation, HPV+ cells – imaging, p53-positive nuclei imaging, 24 h, 48 h (AID 1508601)
measurement_conditions: 24/48 h, measured here: cell number at 24 h, Library stock concentration: 2 mM
The campaign covered roughly 5,700 compounds. About 85 (1%) were called active. The entries come from a sample that favours actives as a whole.
measurement_type: nuclei count, normalised (%)

molecule="COC(=O)c1c(NC(=O)CC2SC(=N)NC2=O)sc(C)c1C (centres undefined)" uom=% result=101
molecule="CC(C)CC(C(=O)NC(Cc1ccc(OCc2ccccc2)cc1)C(=O)NC(C)(C)C)N(C)Cc1ccc(C(C)(C)C)cc1 (centres undefined)" uom=% result=110
molecule=COc1ccc(-c2ccc3ncc4c(c3c2)n(-c2ccc(N3CCNCC3)c(C(F)(F)F)c2)c(=O)n4C)cn1 uom=% result=37.4
molecule="CC(C)CC(NC(=O)C(O)C(N)Cc1ccccc1)C(=O)O (centres undefined)" uom=% result=104
molecule=CCN1CCN(Cc2ccc(Nc3ncc4c(n3)N(C)c3ccccc3C(=O)N4C)cc2C(F)(F)F)CC1 uom=% result=52.5
molecule=CC(C)c1nn(-c2c(Cl)cccc2Cl)c2nc(Cc3ccc(OCCO)cc3)[nH]c(=O)c12 uom=% result=26.2
molecule=Fc1cc(-c2ccnc(Nc3ccc(-n4cnc(N5CCOCC5)n4)cc3)n2)cc(N2CCOCC2)c1 uom=% result=64.8
molecule="CC1CCNC(=O)c2cc3ccc(C(=O)Nc4nc5ccccc5n4CCCN(C)C)cc3n21 (centres undefined)" uom=% result=107
molecule=CN1CCN(c2ccc(Nc3c4ccccc4nc4ccccc34)cc2)CC1 uom=% result=52.3
